# Tested on: human SMAD7 mRNA
# EXPERIMENTAL PROTOCOL: Antisense inhibition of human SMAD7 mRNA expression in Hep3B cells by 3-10-3 cEt gapmers, 10,000 nM, electroporation (Example 2)
# Type: cell-based
# CONDITION CONTEXT: SMAD7 mRNA, Hep3B cells, electroporation with 10,000 nM antisense oligonucleotide, approximately 24 hours, primer probe set RTS5062, relative to untreated control cells
Strand notation (5' to 3'): a small letter for the sugar, then the base; units joined by * are phosphorothioate-linked, units joined directly phosphodiester-linked; [ ] holds rarer units or linkages, { } end groups; capitals alone tell only the bases. k = constrained ethyl (cEt); [5mC] = 5-methylcytosine; d = 2'-deoxy (DNA)
For each record, write down the corresponding % Inhibition.
Numbers only, in %.

Take a look at these entries with their results.
• 829796 (kT*kT*kG*dA*dT*d[5mC]*dT*dT*d[5mC]*d[5mC]*d[5mC]*dG*dT*kA*kA*kG; antisense) [compound 829796] = 27
• 829936 (k[5mC]*kA*kG*d[5mC]*dT*dA*dG*dG*dT*dG*dA*dT*dA*kA*k[5mC]*kA; antisense) [compound 829936] = 14
• 829949 (k[5mC]*k[5mC]*kG*dG*dG*d[5mC]*dA*dG*d[5mC]*d[5mC]*dA*dG*dT*kT*kA*kA; antisense) [compound 829949] = 19
• 829808 (kG*kG*kA*dG*dA*d[5mC]*dT*d[5mC]*dT*dA*dG*dT*dT*k[5mC]*kG*k[5mC]; antisense) [compound 829808] = 53
• 829883 (antisense k[5mC]*kA*kG*dG*d[5mC]*dT*dG*dT*dA*d[5mC]*dG*d[5mC]*d[5mC]*kT*kT*k[5mC]) [compound 829883] = 0

Task: Provide one value: measured % Inhibition of 829988 (kG*k[5mC]*k[5mC]*dG*d[5mC]*dG*dA*dG*dG*d[5mC]*dG*dG*dT*kG*kA*kT; antisense) [compound 829988]
Output: 27

###

# System: human SMAD7 mRNA
# EXPERIMENTAL PROTOCOL: Dose-dependent inhibition of human SMAD7 mRNA expression in A431 cells, oligonucleotide added without transfection (Example 5, Study 1)
# Format: cell-based
# CONDITION CONTEXT: 20.00 μM, approximately 48 hours
Would you mind telling me the reported % inhibition of SMAD7 mRNA expression of each entry?

- 830025 (antisense TTTGTAAATCGAAAGC; 3-10-3 cEt gapmer, further chemistry not given here) [compound 830025]: 67%
- 736697 (antisense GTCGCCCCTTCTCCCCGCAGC; chemistry not fully specified) [compound 736697]: 37%
- 798781 (CGTAAGATTCACAGCA; 3-10-3 cEt gapmer, further chemistry not given here) [compound 798781]: 62%
- 790615 (CCAATGAGAATGCTTC; 3-10-3 cEt gapmer, further chemistry not given here) [compound 790615]: 75%
- 830121 (AGAATCAAGCCCTGGC; 3-10-3 cEt gapmer, further chemistry not given here) [compound 830121]: 44%

We now examine a further substance.
Task: Note % inhibition of SMAD7 mRNA expression for the substance shown: 830037 (antisense CTATTGGCTGATCTGG; 3-10-3 cEt gapmer, further chemistry not given here) [compound 830037]
Output: 67%
